System: NADPH dependent lipid peroxidation
Test method notes: inhibition of the NADPH dependent lipid peroxidation
Type: biochemical
Observed property: pIC50
For clarity, pIC50 is expressed as the negative log10 of concentration in mol/L.

Molecule: OC(COc1cccc2ccccc12)CN1CCCN(c2cc(N3CCCC3)nc(N3CCCC3)n2)CC1 (stereo not shown)
Observed property: pIC50
Data value: 4.89

Prompt: Endpoint output: pIC50 of OC(COc1ccc2ccccc2c1)CN1CCCN(c2cc(N3CCCC3)nc(N3CCCC3)n2)CC1 (stereo not shown) . Value?
Completion: 4.66

====

Test system: NADPH dependent lipid peroxidation
Test method notes: inhibition of the NADPH dependent lipid peroxidation
Format: biochemical
Protocol: 3. Inhibiton of the NADPH dependent lipid peroxidation was measured according to T. J. Player and A. A. Horton [J. Neurochem. 37, 422 (1981)] and Z. Duniec [Biochem. Pharmacol. 32, 2283 (1983)]. The IC50 values (expressed in micromols) of some compounds of the invention, further those of the reference compounds determined in this test are given in Table 3.
Observed property: IC50
Answer format: value, then unit.

Molecule: Cc1cc(C(C)(C)C)c(O)c(C(C)(C)C)c1 [BHT, 3,5-di(tert-butyl)-4-hydroxytoluene, reference compound]
Observed property: IC50
Data value: 2 µM

Prompt: Reported IC50, molecule O=C1CCCc2cc(OCC(O)CN3CCCN(c4cc(N5CCCC5)nc(N5CCCC5)n4)CC3)ccc21 (stereo not shown) : ____
Completion: 16 µM

Prompt: # query: IC50 of entry Cc1c(C)c2c(c(C)c1O)CCC(C)(CN1CCN(c3cc(N4CCCC4)nc(N4CCCC4)n3)CC1)O2 (stereo not shown) [Example U78517F, reference compound]
Completion: 0.7 µM

Prompt: Consider the molecule OC(COc1ccc2ccccc2c1)CN1CCN(c2cc(N3CCCC3)nc(N3CCCC3)n2)CC1 (stereo not shown) and give its measured IC50.
Completion: 59 µM
